test system: HCT116; experiment: Cytotoxicity under normoxia and hypoxia (anaerobic chamber), HCT116; assay type: cell-based, human; conditions: HTC 116
Property: HCR (Hypoxia Cytotoxicity Ratio = normoxic IC50/hypoxic IC50); scope: individual compounds
Result Type: HCR (Hypoxia Cytotoxicity Ratio = normoxic IC50/hypoxic IC50)

>>> observed_measurement("COc1ccc2c3c(c4cc(OC)c(OC)cc4c2c1)C[C@H]1CCCN1C3 [(R)-Antofine, (R)-antofine]")
0.4
>>> observed_measurement("COc1cc2c3c(c4cc(OC)c(OC)cc4c2cc1OC)CN1CCC[C@@H]1C3 [(R)-Tylophorine]")
0.6
>>> observed_measurement("COc1cc2c3c(c4cc(OC)c(OC)cc4c2cc1OC)CN1CCC[C@H]1C3 [(S)-Tylophorine]")
0.5
>>> observed_measurement("CS(=O)(=O)OCCN(CCBr)c1c(C(=O)NCCO)cc([N+](=O)[O-])cc1[N+](=O)[O-] [PR-104A]")
10.5
>>> observed_measurement("Cn1c(COP(=O)(NCCBr)NCCBr)cnc1[N+](=O)[O-] [Evofosfamide, evofosfamide]")
85

###

test: BBB-Parallel Artificial Membrane Permeability Assay (BBB-PAMPA); format: in vitro ADME
Result Type: Permeability (Papp) Log [10^−6 cm/s] Mean ± SE

>>> observed_measurement("CN(C)CCCN1c2ccccc2Sc2ccc(Cl)cc21")
"−5.4 ± 0.13 Log [10^−6 cm/s]"
>>> observed_measurement("COc1cc2c3c(c4cc(OC)c(OC)cc4c2cc1OC)C[N+]1(Cc2c([N+](=O)[O-])ncn2C)CCC[C@H]1C3.[Br-] (stereo partly shown)")
"<−7 Log [10^−6 cm/s]"
>>> observed_measurement("COc1ccc2c3c(c4cc(OC)c(OC)cc4c2c1)C[C@H]1CCCN1C3 [(R)-Antofine, (R)-antofine]")
"−5.6 ± 0.58 Log [10^−6 cm/s]"
>>> observed_measurement("CN1CCN(C2=Nc3cc(Cl)ccc3Nc3ccccc32)CC1")
"−5.1 ± 0.12 Log [10^−6 cm/s]"
>>> observed_measurement("COc1ccc2c3c(c4cc(OC)c(OC)cc4c2c1)C[C@H]1CCC[N+]1(Cc1c([N+](=O)[O-])ncn1C)C3.[Br-] (stereo partly shown)")
"<−7 Log [10^−6 cm/s]"
>>> observed_measurement("CNC(=C[N+](=O)[O-])NCCSCc1ccc(CN(C)C)o1")
"<−7 Log [10^−6 cm/s]"
>>> observed_measurement("COc1cc2c3c(c4cc(OC)c(OC)cc4c2cc1OC)CN1CCC[C@H]1C3 [(S)-Tylophorine]")
"−5.4 ± 0.17 Log [10^−6 cm/s]"
